// cross-study collection: pIC50 for Beta-secretase 1 (Homo sapiens, UniProt P56817)
In plain terms, pIC50 is the concentration in mol/L turned into minus its base-10 logarithm.

stdin: Observed pIC50 on Beta-secretase 1 (Homo sapiens, UniProt P56817) for NC1=NC2(c3ccccc3O1)c1cc(-c3cccnc3F)ccc1Oc1cnc(-c3ccnc(F)c3)cc12 (stereo not shown) , please.
stdout: 8.70

stdin: Observed pIC50 on Beta-secretase 1 (Homo sapiens, UniProt P56817) for NC1=N[C@@]2(COC1)c1cc(-c3cccnc3F)ccc1Oc1c(F)cc(C3CCOCC3)cc12 , please.
stdout: 9.40

stdin: Observed pIC50 on Beta-secretase 1 (Homo sapiens, UniProt P56817) for CCOc1cc([C@H]2C[C@H]3CSC(N)=N[C@@]3(c3ccc(F)cc3F)CO2)nn1C , please.
stdout: 5.27

stdin: Observed pIC50 on Beta-secretase 1 (Homo sapiens, UniProt P56817) for CO[C@H]1CC[C@]2(CC1)Cc1ccc(-c3cncc(C#N)c3)cc1C21COC(N)=N1 (stereo partly shown) , please.
stdout: 6.66

stdin: Observed pIC50 on Beta-secretase 1 (Homo sapiens, UniProt P56817) for COc1cc(F)c2c(c1)[C@]1(COCC(N)=N1)c1cc(N3CCC(F)(F)CC3)ccc1O2 , please.
stdout: 6.80

Proceeding to the next compound to report its pIC50.
stdin: Observed pIC50 on Beta-secretase 1 (Homo sapiens, UniProt P56817) for COc1cc2c(cn1)Oc1ccc(-c3cc(F)ccc3Cl)cc1[C@@]21COCC(N)=N1 , please.
stdout: 8.66

====

// cross-study collection: IC50 for Beta-secretase 1 (Homo sapiens)

Here is how some compounds turned out for IC50.
stdin: Observed IC50 on Beta-secretase 1 (Homo sapiens) for Cn1cc([C@H]2C[C@H]3CSC(N)=N[C@@]3(c3cc(CNCC(F)(F)F)ccc3F)CO2)cn1 (relative stereo) , please.
stdout: 0.019 µM

stdin: Observed IC50 on Beta-secretase 1 (Homo sapiens) for NC1=N[C@@]2(COC1)c1cc(-c3cc(Cl)ccc3F)ccc1Oc1ncc(N3CC[C@@H](F)C3)cc12 , please.
stdout: 0.0006 µM

stdin: Observed IC50 on Beta-secretase 1 (Homo sapiens) for CCCCc1ccc(C2(c3ccccc3)N=C(N)N(C)C2=O)s1 (stereo not shown) , please.
stdout: > 1 µM

stdin: Observed IC50 on Beta-secretase 1 (Homo sapiens) for CC1(C)C[C@H]2COC(N)=N[C@@]2(c2nc(NC(=O)c3ccc(OC(F)F)cn3)cs2)CO1 , please.
stdout: 0.61 µM

stdin: Observed IC50 on Beta-secretase 1 (Homo sapiens) for CCn1cc([C@]2(c3ccc(F)c(-c4cccnc4F)c3)N=C(N)N(C)C2=O)cc1C(=O)OC , please.
stdout: 0.01 to 0.1 µM

Further cases:
stdin: Observed IC50 on Beta-secretase 1 (Homo sapiens) for Cn1cc([C@H]2C[C@H]3CSC(N)=N[C@@]3(c3cc(C#N)ccc3F)CO2)cn1 , please.
stdout: 0.06 µM

stdin: Observed IC50 on Beta-secretase 1 (Homo sapiens) for NC1=N[C@@]2(COC1)c1cc(-c3cccnc3F)ccc1Oc1cnc(N3CCC(F)(F)CC3)cc12 , please.
stdout: 0.0006 µM

====

// cross-study collection: IC50 for Beta-secretase 1 (Homo sapiens)

Here is how some compounds turned out for IC50.
stdin: Observed IC50 on Beta-secretase 1 (Homo sapiens) for NC1=N[C@]2(c3cc(-c4cccnc4F)ccc3Oc3c2cc(-c2ccnc(F)c2)nc3F)c2ccccc21 (single isomer, unassigned) , please.
stdout: 0.6 nM

stdin: Observed IC50 on Beta-secretase 1 (Homo sapiens) for NC1=N[C@]2(CCO1)c1cc(-c3cccnc3F)ccc1Oc1c(F)cc(N3CC[C@@H](F)C3)cc12 , please.
stdout: 892 nM

stdin: Observed IC50 on Beta-secretase 1 (Homo sapiens) for NC1=N[C@@]2(c3ccc(F)cc3F)CO[C@@H](c3cn4cccnc4n3)C[C@H]2CS1 , please.
stdout: 1840 nM

Further cases:
stdin: Observed IC50 on Beta-secretase 1 (Homo sapiens) for NC1=N[C@]2(CCO1)c1cc(-c3cccnc3F)ccc1Oc1c(F)cc(-c3ccnc(F)c3)cc12 , please.
stdout: 7 nM

stdin: Observed IC50 on Beta-secretase 1 (Homo sapiens) for C[C@H]1C[C@H]2CSC(N)=N[C@@]2(c2cc(CNCC(F)(F)F)c(F)cc2F)CO1 , please.
stdout: 76 nM

stdin: Observed IC50 on Beta-secretase 1 (Homo sapiens) for CCCNC(=O)c1cc(C2(c3cccc(-c4cccnc4F)c3)N=C(N)N(C)C2=O)cn1CC (stereo not drawn) , please.
stdout: 110 to 1000 nM

====

// cross-study collection: pIC50 for Beta-secretase 1 (Homo sapiens, UniProt P56817)
In plain terms, pIC50 is the concentration in mol/L turned into minus its base-10 logarithm.

stdin: Observed pIC50 on Beta-secretase 1 (Homo sapiens, UniProt P56817) for CC(C)(C)COc1cnc2c(c1)[C@]1(COCC(N)=N1)c1cc(-c3cccnc3F)ccc1O2 , please.
stdout: 9.10

stdin: Observed pIC50 on Beta-secretase 1 (Homo sapiens, UniProt P56817) for CC(C)(C)COc1cc2c(cn1)Oc1ccc(-c3cccnc3F)cc1[C@@]21COCC(N)=N1 , please.
stdout: 9.40

stdin: Observed pIC50 on Beta-secretase 1 (Homo sapiens, UniProt P56817) for COc1cnc(C(=O)Nc2ccc3c(c2)[C@@]2(CCOC(N)=N2)c2cc(C4CC4)nc(F)c2O3)cn1 , please.
stdout: 8.30

stdin: Observed pIC50 on Beta-secretase 1 (Homo sapiens, UniProt P56817) for NC1=N[C@@]2(c3ccccc3F)CO[C@@H](C3CC3)C[C@H]2CS1 , please.
stdout: 6.37

stdin: Observed pIC50 on Beta-secretase 1 (Homo sapiens, UniProt P56817) for NC1=N[C@@]2(c3ccc(F)cc3)CO[C@@H](C3CC3)C[C@H]2CS1 , please.
stdout: 6.24

stdin: Observed pIC50 on Beta-secretase 1 (Homo sapiens, UniProt P56817) for NC1=N[C@@]2(COC1)c1cc(-c3cc(F)ccc3F)ccc1Oc1ncc(-c3cccnc3)cc12 , please.
stdout: 8.64

====

// cross-study collection: pIC50 for UniProtKB P56817
In plain terms, pIC50 is the concentration in mol/L turned into minus its base-10 logarithm.

stdin: Observed pIC50 on UniProtKB P56817 for NC1=N[C@]2(c3cc(-c4cccnc4F)ccc3Oc3c(F)cc(C4=CCCOC4)cc32)c2nccn21 , please.
stdout: 9.40

stdin: Observed pIC50 on UniProtKB P56817 for Cc1cc(OC(F)F)cnc1C(=O)Nc1csc([C@]23COC(C)(C)C[C@H]2COC(N)=N3)n1 , please.
stdout: 6.32

stdin: Observed pIC50 on UniProtKB P56817 for CC(C)(C)COc1cc2c(cn1)Oc1ccc(-c3cncc(F)c3)cc1[C@@]21COCC(N)=N1 , please.
stdout: 9.22

stdin: Observed pIC50 on UniProtKB P56817 for Cc1cnc([C@@H]2C[C@@H]3CSC(N)=N[C@]3(c3ccc(F)cc3F)CO2)cn1 , please.
stdout: 4.44

stdin: Observed pIC50 on UniProtKB P56817 for C[C@H]1SC(N)=N[C@@]2(c3ccc(F)cc3F)CO[C@@H](c3cnn(C)c3)C[C@@H]12 , please.
stdout: 7.61

Further cases:
stdin: Observed pIC50 on UniProtKB P56817 for COc1ccc(C(=O)Nc2ccc3c(c2)[C@@]2(CCSC(N)=N2)c2cc(-c4cncc(F)c4)nc(F)c2O3)nc1 , please.
stdout: 8.96

stdin: Observed pIC50 on UniProtKB P56817 for NC1=N[C@]2(COCC1)c1cc(Br)ccc1Oc1cnc(Cl)cc12 , please.
stdout: 5.03

stdin: Observed pIC50 on UniProtKB P56817 for NC1=NC(c2ccccc2)(c2cccc(Cc3ccc(F)cc3)c2)C2=NCCCN12 (centres unmarked) , please.
stdout: 5.09

stdin: Observed pIC50 on UniProtKB P56817 for NC1=NC2(CCS1)c1cc(Br)ccc1Oc1ccc(I)cc12 (centres unmarked) , please.
stdout: 5.00

stdin: Observed pIC50 on UniProtKB P56817 for NC1=NC2(CO1)c1cc(-c3cncnc3)ccc1CC2C1CCOCC1 (centres unmarked) , please.
stdout: 5.33

stdin: Observed pIC50 on UniProtKB P56817 for [2H]C1([2H])OC(N)=N[C@]12c1cc(-c3cncc(C)c3)ccc1C[C@@]21CC[C@H](OC)[C@@H](C)C1 , please.
stdout: 7.17

stdin: Observed pIC50 on UniProtKB P56817 for CO[C@H]1CC[C@]2(CC1)Cc1ccc(-c3cccnn3)cc1C21COC(N)=N1 (some centres unmarked) , please.
stdout: 5.65

stdin: Observed pIC50 on UniProtKB P56817 for NC1=N[C@@]2(CCO1)c1cc(-c3cccnc3F)ccc1Oc1c(F)cc(N3CCOCC3)cc12 , please.
stdout: 8.32

stdin: Observed pIC50 on UniProtKB P56817 for COc1cc2c(cn1)Oc1ccc(-c3cccnc3)cc1[C@@]21COCC(N)=N1 , please.
stdout: 8.17

stdin: Observed pIC50 on UniProtKB P56817 for Cc1cc([C@H]2C[C@H]3CSC(N)=N[C@@]3(c3cc(C#N)ccc3F)CO2)on1 , please.
stdout: 7.19

stdin: Observed pIC50 on UniProtKB P56817 for NC1=N[C@@]2(COC1)c1cc(-c3cc(F)ccc3F)ccc1Oc1ncc(-c3ccnc(F)c3)cc12 , please.
stdout: 8.70

stdin: Observed pIC50 on UniProtKB P56817 for NC1=N[C@@]2(COC1)c1cc(-c3cccnc3F)ccc1Oc1c2cc(C2=CCCOC2)nc1F , please.
stdout: 9.40

stdin: Observed pIC50 on UniProtKB P56817 for COc1ccc(C(=O)Nc2ccc3c(c2)[C@@]2(CCSC(N)=N2)c2cc(C4=CCCOC4)nc(F)c2O3)nc1 , please.
stdout: 8.60

stdin: Observed pIC50 on UniProtKB P56817 for CC1(COc2cc(F)c3c(c2)[C@]2(COCC(N)=N2)c2cc(N4CCC(F)(F)CC4)ccc2O3)COC1 , please.
stdout: 8.03

stdin: Observed pIC50 on UniProtKB P56817 for CC1(COc2cc(F)c3c(c2)[C@]2(CCOC(N)=N2)c2cc(-c4cccnc4F)ccc2O3)COC1 , please.
stdout: 8.64

stdin: Observed pIC50 on UniProtKB P56817 for CCCOc1cccc(C2(c3ccc(OC)c(C)c3)N=C(N)N3CCN=C32)c1 (centres unmarked) , please.
stdout: 6.40

stdin: Observed pIC50 on UniProtKB P56817 for NC1=N[C@@]2(COC1)c1cc(-c3cccnc3F)ccc1Oc1ncc(-c3ccc(F)cc3)cc12 , please.
stdout: 9.30

stdin: Observed pIC50 on UniProtKB P56817 for NC1=N[C@@]2(CCO1)c1cc(NC(=O)c3ccc(F)cn3)ccc1Oc1c2cc(-c2cncc(F)c2)nc1F , please.
stdout: 8.80
